Method Notes: Monkey PK Study
Format: in vivo
Study Conditions: male, plasma; cynomolgus monkey, nominal 1 mg/kg 60-minute intravenous infusion, cassette; read-out: Monkey Pharmacokinetics Total Clearance
Assign clearance to each entry below.
Write it as a number; the unit mL/min/kg goes unstated.

QUERY: Recorded clearance of CC[C@@H]1CN(Cc2cc([C@@H](CC(=O)O)c3ccc4c(nnn4C)c3C)ccc2C)Cc2nc(O)ccc2O1 [Example 1] , please.
RESULT: 0.41

QUERY: Recorded clearance of CC[C@@H]1CN(Cc2cc([C@@H](CC(=O)O)c3ccc4c(nnn4C)c3C)ccc2C)Cc2ncccc2O1 [Compound A, reference compound] , please.
RESULT: 10.9

###

Assign EC50 to each entry below.
System: Nrf2 (NQO1 activity in BEAS-2B cells)
Method Notes: BEAS-2B NQO1 MTT Assay
Assay type: cell-based
Study Conditions: Homo sapiens, 48 hours, NQO1 specific activity induction, read-out: EC50

QUERY: Recall the recorded EC50 for `Cc1ccc([C@H](CC(=O)O)c2ccc3c(nnn3C)c2C)cc1CN1Cc2nc(O)ccc2O[C@H](C(F)(F)F)C1` with Nrf2 (NQO1 activity in BEAS-2B cells) and state it.
RESULT: 10 to 100 nM

QUERY: Recall the recorded EC50 for `Cc1ccc([C@@H](c2ccc3c(nnn3C)c2C)C(C)(C)C(=O)O)cc1CN1CCOc2ccc(O)nc2C1` with Nrf2 (NQO1 activity in BEAS-2B cells) and state it.
RESULT: 10 to 100 nM

QUERY: Recall the recorded EC50 for `Cc1ccc([C@H](CC(=O)O)c2ccc3c(nnn3C)c2C)cc1CN1Cc2nc(O)ccc2O[C@@H](C(F)(F)F)C1` with Nrf2 (NQO1 activity in BEAS-2B cells) and state it.
RESULT: 1000 to 10000 nM

QUERY: Recall the recorded EC50 for `CC[C@@H]1CN(Cc2cc([C@@H](c3ccc4c(nnn4C)c3C)C(C)(C)C(=O)O)ccc2C)Cc2nc(O)ccc2O1` with Nrf2 (NQO1 activity in BEAS-2B cells) and state it.
RESULT: < 1 nM

QUERY: Recall the recorded EC50 for `CC[C@@]1(C)CN(Cc2cc([C@@H](CC(=O)O)c3ccc4c(nnn4C)c3C)ccc2C)Cc2nc(O)ccc2O1` with Nrf2 (NQO1 activity in BEAS-2B cells) and state it.
RESULT: 10 to 100 nM

QUERY: Recall the recorded EC50 for `CC[C@@H]1CN(Cc2cc([C@H](CC(=O)O)c3ccc4c(nnn4C)c3C)ccc2C)Cc2nc(O)ccc2O1` with Nrf2 (NQO1 activity in BEAS-2B cells) and state it.
RESULT: 10 to 100 nM

QUERY: Recall the recorded EC50 for `Cc1ccc([C@@H](CC(=O)O)c2ccc3c(nnn3C)c2C)cc1CN1Cc2nc(O)ccc2O[C@H](C(C)(C)C)C1` with Nrf2 (NQO1 activity in BEAS-2B cells) and state it.
RESULT: 10 to 100 nM

The reported measurements were obtained from patent US11945826B2.
